# Tested on: HEP‐G2 human hepatoma cell line
# settings: human, 24 h
measuredAttribute: LD25 (concentration to reduce cell viability by 25 %)

structureSmilesString | val
CCCC(=O)Nc1ccc(CNc2ccc(F)cc2)cc1F | >63 µM
CCOC(=O)Nc1ccc(C#Cc2ccccc2)nc1N | >125 µM
CCCC(=O)Nc1ncc(CNc2ccc(F)cc2)cc1Br | >63 µM
Cc1cc(CNc2ccc(F)cc2)ccc1NC(=O)CCn1cccn1 | >63 µM
CCCC(=O)Nc1ccc(CNc2ccc(C)cn2)cc1C | >125 µM
